B1: Hairpin Ribozyme (parent)
chain: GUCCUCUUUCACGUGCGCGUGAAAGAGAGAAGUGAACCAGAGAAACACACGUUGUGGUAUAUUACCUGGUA

variants of: B1; test: self-cleavage, relative activity (ratio to wild type); higher = more cleavage; co-transcriptional
self-cleavage overview
OBSERVATION_TYPE: self-cleavage

1. C4U G40C    0.13
2. G69C U70G    0.657
3. G17A U55C    0.354
4. C3G G40A    0.0852
5. G40C C65U    0.129
6. G1U G21U    0.109
7. C37A U58C    0.349
8. C10G U62G    0.138
9. C50G G51U    0.375
10. U8C A24U    0.369
11. U5A A45U    0.141
12. G57C U63A    0.165
13. A24U U33G    0.135
14. C48A U60A    0.134
15. C16A G40U    0.147
16. G19A A49G    0.595
17. C10A C46G    0.1
18. G32A A44C    0.0922
19. G13C A47U    0.109
20. U5A A49U    0.0811
21. G27U A49C    0.225
22. G57C U67G    0.123
23. G21C G40U    0.17
24. G1U G54A    0.0766
25. C16A G34U    1.47
26. C3A C50A    0.145
27. U2C U9G    0.0171
28. A26C U53G    0.883
29. A41G G68U    0.364
30. C3A C12A    0.603
31. C37U C65U    0.316
32. G19C G32C    0.0926
33. A43U A61G    0.144
34. U14G A59C    0.0613
35. G15C U53A    0.792
36. U53G G57C    0.202
37. A43G C46G    0.26
38. G42A U62C    0.133
39. G21A A30C    0.128
40. G17U A23U    0.811
41. G17U A41U    1.51
42. A24C A71U    0.696
43. C10U G69U    0.217
44. C3G G34C    0.911
45. A31C A71G    0.212
46. U5A A59U    0.153
